Target: Ubiquitin-conjugating enzyme E2 N (Homo sapiens, UniProt P61088);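 note: Dose-response confirmation in a TR-FRET assay detecting UBC13-driven polyubiquitin chain formation, inhibition measured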
Sequence (P61088 whole entry): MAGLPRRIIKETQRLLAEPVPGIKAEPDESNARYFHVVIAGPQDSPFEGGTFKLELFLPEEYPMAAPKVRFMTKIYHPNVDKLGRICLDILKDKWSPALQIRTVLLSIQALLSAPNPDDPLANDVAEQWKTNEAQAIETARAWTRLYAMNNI
Assay type: functional
Activity calls are given as the source filed them.
Choose one outcome from this list and give only that: Yes for active, No for inactive

Record excerpt, results attached:
> print(dat)
                                 mol.smiles  label.value
1  Cc1ccccc1C(=O)NCC(=O)NNC(=S)NC(=O)c1ccccc1           No
2  COC(=O)C1=C(c2ccc(F)cc2OCc2ccccc2)C[C@@H]2CC[C@H]1N2C(=O)NC1CCN(Cc2ccccc2)CC1           No
3  N=C(N)N/N=C/c1ccc(OCc2ccccc2)c(OCc2ccccc2)c1          Yes
4           Sc1nc2ccccc2c2nc(-c3cccnc3)nn12           No

Q: Which result was noted for this molecule in the test: `C[C@@H](CN1CCC[C@H]1CN1C(N)=NC[C@@H]1Cc1ccccc1)N1C[C@@H](Cc2ccccc2)N(CCCC2CCCC2)C1=N`
Ans: No

Q: Which result was noted for this molecule in the test: `Cc1ccc(C(=O)N/C(=C/c2ccc(-c3cccc([N+](=O)[O-])c3)o2)C(=O)NCCCN(C)C)cc1`
Ans: No
